- test_name: Caco-2 permeability assay (CacoReady kit)
- Format: in vitro ADME
- condition_notes: human
Give Papp for every item shown.

Request: For O=C(/C=C/CC[C@H](NC(=O)c1cnc2ccc(OC(F)(F)F)cc2c1O)C(=O)Nc1cccn(CC(=O)NC23CC(C2)C3)c1=O)NC1CC1 , write its Papp.
Result: < 1 ×10⁻⁶ cm/s

Request: For CN(C)C(=O)/C=C/CC[C@H](NC(=O)c1cncn1C)C(=O)Nc1cccn(CC(=O)NC2C3CC4CC(C3)CC2C4)c1=O (stereo partly drawn) , write its Papp.
Result: < 1 ×10⁻⁶ cm/s

Request: For COC(=O)/C=C/CC[C@H](NC(=O)c1oc2ccccc2c1C)C(=O)Nc1cccn(CC(=O)NC(C)C23CC4CC(CC(C4)C2)C3)c1=O (stereo partly drawn) , write its Papp.
Result: 1 to 10 ×10⁻⁶ cm/s

Request: For COC(=O)/C=C/CC[C@H](NC(=O)c1cnsn1)C(=O)Nc1cccn(CC(=O)NC23CC(C2)C3)c1=O , write its Papp.
Result: < 1 ×10⁻⁶ cm/s

Request: For COC(=O)/C=C/CC[C@H](NC(=O)c1cc2c(Br)cccc2o1)C(=O)Nc1cccn(CC(=O)NC2C3CC4CC(C3)CC2C4)c1=O (stereo partly drawn) , write its Papp.
Result: 1 to 10 ×10⁻⁶ cm/s

Request: For COC(=O)/C=C/CC[C@H](NC(=O)c1snnc1C=O)C(=O)Nc1cccn(CC(=O)NC2(C(=O)O)C3CC4CC2CC(C(F)(F)F)(C4)C3)c1=O (stereo partly drawn) , write its Papp.
Result: < 1 ×10⁻⁶ cm/s
